- experiment description: Pharmacokinetic test in rats
- Assay type: in vivo, Sprague-Dawley (SD) rats
- applied conditions: Sprague-Dawley, rat, po; male SD rats, intragastric administration of 10 mg/kg, plasma; read-out: peak time of blood concentration tmax

- molecule: "CC[C@H]1[C@@H](O)[C@@H]2[C@H](CC[C@]3(C)[C@@H]([C@H](C)CCC(=O)O)CC[C@@H]23)[C@@]2(C)CC[C@@H](O)C[C@@H]12 [INT-747, reference compound]"
  Tmax (min): 30
- molecule: "CC[C@H]1[C@@H](O)C2C3CCC([C@H](C)CC4SC(=O)NC4=O)[C@@]3(C)CCC2[C@@]2(C)CC[C@@H](O)C[C@@H]12 (single isomer, unassigned)"
  Tmax (min): 60

The measurements presented in this section are drawn from patent US20180148470A1.
